assay: self-splicing fitness, log relative to wild type (ln ratio); higher = more splicing; Tetrahymena group I intron in knt gene, E. coli kanamycin selection, DiMSum; sequences stand for … in CUCUCU…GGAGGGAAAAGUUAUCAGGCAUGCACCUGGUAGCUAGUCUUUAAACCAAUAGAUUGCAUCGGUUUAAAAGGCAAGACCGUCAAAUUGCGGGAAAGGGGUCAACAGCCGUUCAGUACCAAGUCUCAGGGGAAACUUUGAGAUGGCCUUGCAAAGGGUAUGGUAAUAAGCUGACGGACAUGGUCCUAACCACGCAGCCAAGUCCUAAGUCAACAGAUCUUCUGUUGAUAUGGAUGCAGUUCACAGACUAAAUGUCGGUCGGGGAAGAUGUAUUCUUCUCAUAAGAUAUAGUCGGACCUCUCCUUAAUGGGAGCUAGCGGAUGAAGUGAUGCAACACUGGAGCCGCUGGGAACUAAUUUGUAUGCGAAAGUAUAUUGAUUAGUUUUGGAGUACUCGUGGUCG; conditions: 37 °C;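 note: selection with 25 µg/mL kanamycin versus none on LB agar overnight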
Would you mind labelling by self-splicing fitness (ln)? At or over -1 is Y, under is N.

Sequence Record: AGUUAGCAAUAUUACGAACG
Cat: Y
--
Sequence Record: AACAAGCAAUAUUACGAUAU
Cat: N
--
Sequence Record: UAUUAGCAAUAUUACGUAAA
Cat: N
--
Sequence Record: CGUGAGCAAUAUUACGCGGU
Cat: N
--
Sequence Record: GCCAAGCAAUAUUACGACCU
Cat: N
--
Sequence Record: AACGAGCAAUAUUACGGUUG
Cat: N
--
Sequence Record: CACAAGCAAUAUUACGUCGG
Cat: Y
--
Sequence Record: CUUGAGCAAUAUUACGUCUG
Cat: Y
--
Sequence Record: CGUUAGCAAUAUUACGGGAC
Cat: N
--
Sequence Record: GUGCAGCAAUAUUACGUCCC
Cat: Y
--
Sequence Record: GGUUAGCAAUAUUACGGGUU
Cat: N
--
Sequence Record: GUCGAGCAAUAUUACGGAGU
Cat: Y
--
Sequence Record: CGAGAGCAAUAUUACGAGAA
Cat: N
--
Sequence Record: UCAAAGCAAUAUUACGAGAA
Cat: N
--
Sequence Record: CUAAAGCAAUAUUACGGGGU
Cat: N

* * *

assay: self-splicing fitness, log relative to wild type (ln ratio); higher = more splicing; Tetrahymena group I intron in knt gene, E. coli kanamycin selection, DiMSum; sequences stand for … in CUCUCU…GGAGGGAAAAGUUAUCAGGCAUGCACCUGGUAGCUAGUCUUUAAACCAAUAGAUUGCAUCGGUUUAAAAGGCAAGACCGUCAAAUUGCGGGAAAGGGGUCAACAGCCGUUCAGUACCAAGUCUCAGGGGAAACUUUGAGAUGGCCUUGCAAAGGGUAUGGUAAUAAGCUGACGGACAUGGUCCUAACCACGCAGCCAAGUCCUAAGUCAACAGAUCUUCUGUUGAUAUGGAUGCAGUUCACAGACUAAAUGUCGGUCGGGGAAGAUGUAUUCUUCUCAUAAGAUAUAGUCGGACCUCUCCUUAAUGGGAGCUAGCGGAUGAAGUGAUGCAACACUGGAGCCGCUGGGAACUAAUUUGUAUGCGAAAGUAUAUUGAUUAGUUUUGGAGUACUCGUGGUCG; details: 30 °C
Parameter self-splicing fitness (ln): see the listing below.

Sequence Record: UGGAAGCAAUAUUACGUUUG
self-splicing fitness (ln): -0.722

Sequence Record: UUUCAGCAAUAUUACGAGGU
self-splicing fitness (ln): -3.53

Sequence Record: UCUAAGCAAUAUUACGAGUG
self-splicing fitness (ln): -0.69

Sequence Record: AGUUAGCAAUAUUACGAUAU
self-splicing fitness (ln): -1.55

Sequence Record: UUUUAGCAAUAUUACGGGUC
self-splicing fitness (ln): -3.73

Sequence Record: ACGAAGCAAUAUUACGCCAU
self-splicing fitness (ln): -4.46

Sequence Record: AAGGAGCAAUAUUACGAAAA
self-splicing fitness (ln): -2.9

Sequence Record: UCAAAGCAAUAUUACGGGGU
self-splicing fitness (ln): -3.42

* * *

experiment: self-splicing fitness, log relative to wild type (ln ratio); higher = more splicing; Tetrahymena group I intron in knt gene, E. coli kanamycin selection, DiMSum; sequences stand for … in CUCUCU…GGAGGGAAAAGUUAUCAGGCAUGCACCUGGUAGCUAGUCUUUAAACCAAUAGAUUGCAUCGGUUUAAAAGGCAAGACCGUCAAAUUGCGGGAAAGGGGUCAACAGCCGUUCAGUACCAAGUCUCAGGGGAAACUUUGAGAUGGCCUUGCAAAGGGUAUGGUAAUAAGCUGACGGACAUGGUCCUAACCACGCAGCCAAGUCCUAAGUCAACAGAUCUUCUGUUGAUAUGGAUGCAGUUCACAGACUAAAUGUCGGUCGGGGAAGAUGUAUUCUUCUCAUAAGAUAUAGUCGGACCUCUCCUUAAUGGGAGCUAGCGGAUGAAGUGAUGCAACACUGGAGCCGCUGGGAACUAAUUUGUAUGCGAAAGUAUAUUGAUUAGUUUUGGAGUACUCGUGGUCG; settings: 37 °C
Parameter self-splicing fitness (ln): see the listing below.

Sequence Record: UUCGAGCAAUAUUACGACGA
self-splicing fitness (ln): -0.0591
--
Sequence Record: UCGGAGCAAUAUUACGGCUG
self-splicing fitness (ln): -1.5
--
Sequence Record: UGAAAGCAAUAUUACGUCAG
self-splicing fitness (ln): -0.368
--
Sequence Record: UCCUAGCAAUAUUACGCUCU
self-splicing fitness (ln): -2.67
--
Sequence Record: CCUAAGCAAUAUUACGGAAC
self-splicing fitness (ln): -1.68
--
Sequence Record: AUGUAGCAAUAUUACGAGAU
self-splicing fitness (ln): -0.409
--
Sequence Record: GGAAAGCAAUAUUACGCCGC
self-splicing fitness (ln): -1.89
--
Sequence Record: CCAUAGCAAUAUUACGCCGA
self-splicing fitness (ln): -1.57
--
Sequence Record: ACUCAGCAAUAUUACGGUAA
self-splicing fitness (ln): -0.871
--
Sequence Record: UCAUAGCAAUAUUACGUCCU
self-splicing fitness (ln): -1.18
--
Sequence Record: GGAAAGCAAUAUUACGUAUA
self-splicing fitness (ln): -1.16
--
Sequence Record: UCCGAGCAAUAUUACGCGAU
self-splicing fitness (ln): -2.3
--
Sequence Record: ACACAGCAAUAUUACGACGA
self-splicing fitness (ln): -0.406
--
Sequence Record: AAAAAGCAAUAUUACGAUCC
self-splicing fitness (ln): 0.153
--
Sequence Record: CUAUAGCAAUAUUACGUCCA
self-splicing fitness (ln): -3.13
--
Sequence Record: UACCAGCAAUAUUACGCAUU
self-splicing fitness (ln): -0.373
--
Sequence Record: GGGCAGCAAUAUUACGUUCG
self-splicing fitness (ln): -0.431
--
Sequence Record: UCUAAGCAAUAUUACGAGAG
self-splicing fitness (ln): -2.37
--
Sequence Record: CGGCAGCAAUAUUACGGUUA
self-splicing fitness (ln): -0.476
--
Sequence Record: AUGGAGCAAUAUUACGAAUA
self-splicing fitness (ln): -1.08
--
Sequence Record: CGAGAGCAAUAUUACGGACU
self-splicing fitness (ln): -2.14
--
Sequence Record: ACUGAGCAAUAUUACGGUAU
self-splicing fitness (ln): -3.17
--
Sequence Record: UUCAAGCAAUAUUACGGGAA
self-splicing fitness (ln): -0.286
--
Sequence Record: ACGGAGCAAUAUUACGGAGG
self-splicing fitness (ln): -1.69
--
Sequence Record: CUACAGCAAUAUUACGAGAU
self-splicing fitness (ln): -2.96
--
Sequence Record: UGAUAGCAAUAUUACGUCAC
self-splicing fitness (ln): -2.81
--
Sequence Record: ACGAAGCAAUAUUACGGCUG
self-splicing fitness (ln): -0.0127
--
Sequence Record: AGGAAGCAAUAUUACGAAUA
self-splicing fitness (ln): -1.11
--
Sequence Record: UUACAGCAAUAUUACGGGGA
self-splicing fitness (ln): -0.871
--
Sequence Record: GGAAAGCAAUAUUACGUAGG
self-splicing fitness (ln): -2.23
--
Sequence Record: AAUAAGCAAUAUUACGCCAG
self-splicing fitness (ln): -0.98
--
Sequence Record: GCCGAGCAAUAUUACGAGGG
self-splicing fitness (ln): -1.91
--
Sequence Record: CGGCAGCAAUAUUACGUAAG
self-splicing fitness (ln): 0.0199
--
Sequence Record: UUAUAGCAAUAUUACGGACU
self-splicing fitness (ln): -0.965

* * *

Parameter self-splicing fitness (ln): see the listing below.
experiment: self-splicing fitness, log relative to wild type (ln ratio); higher = more splicing; Tetrahymena group I intron in knt gene, E. coli kanamycin selection, DiMSum; sequences stand for … in CUCUCU…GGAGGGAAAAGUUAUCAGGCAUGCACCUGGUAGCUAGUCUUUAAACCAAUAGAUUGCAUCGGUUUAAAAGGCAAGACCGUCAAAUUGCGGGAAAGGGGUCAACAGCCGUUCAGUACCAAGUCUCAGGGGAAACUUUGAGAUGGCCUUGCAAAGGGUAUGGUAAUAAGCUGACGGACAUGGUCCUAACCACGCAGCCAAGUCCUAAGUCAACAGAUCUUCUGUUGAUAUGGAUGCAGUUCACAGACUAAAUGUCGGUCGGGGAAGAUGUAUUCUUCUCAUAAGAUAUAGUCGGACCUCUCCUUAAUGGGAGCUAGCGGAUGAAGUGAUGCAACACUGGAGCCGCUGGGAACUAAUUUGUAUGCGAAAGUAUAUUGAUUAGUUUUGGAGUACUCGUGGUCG; conditions: 30 °C
Parameter Measured: self-splicing fitness (ln)

Sequence Record: ACCGAGCAAUAUUACGUUUC
Parameter Measured: self-splicing fitness (ln)
Test Value: -4.37
//
Sequence Record: CCAAAGCAAUAUUACGCAAU
Parameter Measured: self-splicing fitness (ln)
Test Value: -4.04
//
Sequence Record: GGUGAGCAAUAUUACGUAGU
Parameter Measured: self-splicing fitness (ln)
Test Value: -3.37
//
Sequence Record: GGUUAGCAAUAUUACGCAUG
Parameter Measured: self-splicing fitness (ln)
Test Value: -1.89
//
Sequence Record: CAGAAGCAAUAUUACGGUUA
Parameter Measured: self-splicing fitness (ln)
Test Value: -2.25
//
Sequence Record: AGAUAGCAAUAUUACGUGCU
Parameter Measured: self-splicing fitness (ln)
Test Value: -1.39
//
Sequence Record: CCACAGCAAUAUUACGGUGA
Parameter Measured: self-splicing fitness (ln)
Test Value: -0.943
//
Sequence Record: AUAGAGCAAUAUUACGGGCA
Parameter Measured: self-splicing fitness (ln)
Test Value: -2.19
//
Sequence Record: UCACAGCAAUAUUACGAGGA
Parameter Measured: self-splicing fitness (ln)
Test Value: -1.73
//
Sequence Record: AUUUAGCAAUAUUACGGUCC
Parameter Measured: self-splicing fitness (ln)
Test Value: -2.72
//
Sequence Record: CAGCAGCAAUAUUACGAACG
Parameter Measured: self-splicing fitness (ln)
Test Value: -0.451
//
Sequence Record: AUCCAGCAAUAUUACGAUCA
Parameter Measured: self-splicing fitness (ln)
Test Value: -1.43
//
Sequence Record: UAUAAGCAAUAUUACGCUAU
Parameter Measured: self-splicing fitness (ln)
Test Value: -3.91
//
Sequence Record: GGUGAGCAAUAUUACGAUAC
Parameter Measured: self-splicing fitness (ln)
Test Value: -2.03
//
Sequence Record: CGUCAGCAAUAUUACGCCAA
Parameter Measured: self-splicing fitness (ln)
Test Value: -3.6
//
Sequence Record: UAGAAGCAAUAUUACGACUA
Parameter Measured: self-splicing fitness (ln)
Test Value: -0.222

Data provenance is the supplement of paper PMC7877785.
